# targetOfAssay: Protein A, recombinant (Sigma P7837) (UniProt P38507 37-327)
# protocolText: SPR; steady state; aptamer immobilized 1086 RU; avidity
# testConditions: label: 3'-biotin
observedProperty: pKd
Give bare numbers, as −log10 of the molar value.

Exercise: For PA#2/8 3'-biotin (structured_DNA) DNA: ATACCAGCTTATTCAATTAGCAACATGAGGGGGATAGAGGGGGTGGGTTCTCTCGGCTACAATCGTAATCAGTTAG , what is its reported pKd?
Key: 6.76
